Below, each entry is listed with its recorded TGI.
- Test system: HOP-92 NSCLC
- protocol_notes: NCI tumour cell line growth inhibition, 48 h
endpoint_name: TGI (µM)

{"compound": "COc1ccc([C@H]2[C@@H](F)C(=O)N2c2cc(OC)c(OC)c(OC)c2)cc1F", "endpoint_name": "TGI", "operator": "=", "observed_measurement": 63.9}
{"compound": "Cc1cc(O)c(/C=N/C(=S)NCc2ccccc2)c(=O)o1", "endpoint_name": "TGI", "operator": ">", "observed_measurement": 100}
{"compound": "COc1ccc(/C=C(/C#N)n2nnc3cccc(F)c32)cc1", "endpoint_name": "TGI", "operator": "=", "observed_measurement": 3.23}
{"compound": "O=C1OC(O)[C@@H]2[C@H]1[C@H]1CC[C@@H]2O1 (stereo not given in full)", "endpoint_name": "TGI", "operator": ">", "observed_measurement": 69.9}
{"compound": "COC(=O)C1=C(C)NC(C)=C(C(=O)OCCCN2CCC(c3ccccc3)(c3ccccc3)CC2)C1c1cccc([N+](=O)[O-])c1 (stereo not given)", "endpoint_name": "TGI", "operator": "=", "observed_measurement": 4.26}
{"compound": "CC1(C)CCCC2OC2CCC(C)(C)C1=O (stereo not given)", "endpoint_name": "TGI", "operator": ">", "observed_measurement": 100}
{"compound": "Cc1ccc2c(c1)C(=O)C1(Cc3ccccc3C1=O)C2 (stereo not given)", "endpoint_name": "TGI", "operator": ">", "observed_measurement": 100}
{"compound": "COc1cc(C2c3cc4c(cc3OC(NN)C2C)OCO4)cc(OC)c1OC (stereo not given)", "endpoint_name": "TGI", "operator": "=", "observed_measurement": 84.8}
{"compound": "CCOC(=O)c1c(C)nc2c3ccccc3c(C#N)c(C)n12", "endpoint_name": "TGI", "operator": ">", "observed_measurement": 100}
{"compound": "COc1cc(/C=C2\\CN(S(=O)(=O)c3ccccc3)C/C(=C\\c3cc(CN4CCCC4)c(O)c(OC)c3)C2=O)cc(CN2CCCC2)c1O", "endpoint_name": "TGI", "operator": "=", "observed_measurement": 4.69}
